Multi-source literature compilation: IC50 on F1F0-ATPase (Bos taurus, UniProt P13621).

Consider the worked cases shown below.
{"Compound": "O=C(/N=C(/NCc1ccc(F)c(Cl)c1)N[C@H]1CC[C@H](O)CC1)c1ccc(F)c(F)c1", "Observed measurement": "> 10 µM"}
{"Compound": "Cn1nc(C(C)(C)C)cc1C(=O)/N=C(\\Nc1cc(-c2ccc(F)cc2)n[nH]1)NC1CCCC1", "Observed measurement": "< 5 µM"}
{"Compound": "Cc1oncc1C(=O)/N=C(\\Nc1cc(-c2cc(F)cc(Cl)c2)n[nH]1)NC1(C)CCCC1", "Observed measurement": "< 5 µM"}
{"Compound": "O=C(N=C(Nc1cc(-c2ccc(F)cc2)n[nH]1)NC1CCOCC1)c1ccc(Cl)c(F)c1", "Observed measurement": "> 10 µM"}
{"Compound": "O=C(/N=C(/NCc1ccc(F)c(Cl)c1)Nc1cc(C(F)F)[nH]n1)c1ccc(F)c(F)c1", "Observed measurement": "< 10 µM"}
{"Compound": "CC1(CNC(=NC(=O)c2ccc(F)c(F)c2)Nc2n[nH]c3ccc(C(F)(F)F)cc23)COC1", "Observed measurement": "> 16 µM"}
{"Compound": "CCC(C)N/C(=N/C(=O)c1ccc(F)c(F)c1)Nc1cc(-c2ccc(C)c(F)c2)n[nH]1 (stereo not drawn)", "Observed measurement": "< 10 µM"}
{"Compound": "CCOC(=O)N[C@H]1CC[C@H](N/C(=N\\C(=O)c2ccc(F)c(F)c2)Nc2cccc(Cl)c2F)CC1", "Observed measurement": "< 10 µM"}

Next up:
# return IC50 for CN(/C(=N\C(=O)c1ccc(F)c(F)c1)Nc1cccc(O)n1)c1ccc(F)c(Cl)c1 , test system: F1F0-ATPase (Bos taurus, UniProt P13621)
> 10 µM
